- Tested on: concanavalin A-stimulated splenocytes
- procedure_text: Concanavalin A-stimulated splenocyte assay
- Format: cell-based, BALB/c mice
- recorded_conditions: immunosuppressive activity; ConA-stimulated murine splenocytes, [3H]thymidine incorporation, 7 point curves
quantity_measured: IC50 (µg/mL)
Numeric answer only, unit µg/mL assumed.

Answered examples (3):
compound | IC50 / µg/mL
CC[C@@H]1NC(=O)[C@H]([C@H](O)[C@H](C)C/C=C/Br)N(C)C(=O)[C@H](C(C)C)N(C)C(=O)[C@H](CC(C)C)N(C)C(=O)[C@H](CC(C)C)N(C)C(=O)[C@@H](C)NC(=O)[C@H](C)NC(=O)[C@H](CC(C)C)N(C)C(=O)[C@H](C(C)C)NC(=O)[C@H](CC(C)C)N(C)C(=O)CN(C)C1=O (relative stereo) [Example 19, trans-cyclosporin vinyl bromide] | 0.009
C=C/C=C/C[C@@H](C)[C@@H](O)[C@H]1C(=O)N[C@@H](CC)C(=O)N(C)[C@H](CO)C(=O)N(C)[C@@H](CC(C)C)C(=O)N[C@@H](C(C)C)C(=O)N(C)[C@@H](CC(C)C)C(=O)N[C@@H](C)C(=O)N[C@H](C)C(=O)N(C)[C@@H](CC(C)C)C(=O)N(C)[C@@H](CC(C)C)C(=O)N(C)[C@@H](C(C)C)C(=O)N1C (relative stereo) [Example 67, trans-cyclosporin diene] | 0.007
CC[C@@H]1NC(=O)[C@H]([C@H](O)[C@H](C)CC=CCF)N(C)C(=O)[C@H](C(C)C)N(C)C(=O)[C@H](CC(C)C)N(C)C(=O)[C@H](CC(C)C)N(C)C(=O)[C@@H](C)NC(=O)[C@H](C)NC(=O)[C@H](CC(C)C)N(C)C(=O)[C@H](C(C)C)NC(=O)[C@H](CC(C)C)N(C)C(=O)CN(C)C1=O [Example 34, cyclosporin allylic fluoride] | 0.012

Moving on to the next compound.
# get_value(readout='IC50', item= CC[C@@H]1NC(=O)[C@H]([C@H](O)[C@H](C)CC=CC(F)(F)F)N(C)C(=O)[C@H](C(C)C)N(C)C(=O)[C@H](CC(C)C)N(C)C(=O)[C@H](CC(C)C)N(C)C(=O)[C@@H](C)NC(=O)[C@H](C)NC(=O)[C@H](CC(C)C)N(C)C(=O)[C@H](C(C)C)NC(=O)[C@H](CC(C)C)N(C)C(=O)CN(C)C1=O [Example 31, cyclosporin fluoride] )
0.038
